Where do these numbers come from? They come from patent US20030153731A1.

target: 1,3-fucosyl transferase in extracts from CHO cells transfected with clone 7.2 (Homo sapiens); construct: expressed in transfected cells; host or cells: CHO cells transfected with clone 7.2; Triton X-100 lysate; assay: fucosyl transferase enzyme assay: linking 14C-fucose to acceptor molecules; format: biochemical; settings: extract of CHO cells transfected with clone 7.2
Sequence (P22083 126-530): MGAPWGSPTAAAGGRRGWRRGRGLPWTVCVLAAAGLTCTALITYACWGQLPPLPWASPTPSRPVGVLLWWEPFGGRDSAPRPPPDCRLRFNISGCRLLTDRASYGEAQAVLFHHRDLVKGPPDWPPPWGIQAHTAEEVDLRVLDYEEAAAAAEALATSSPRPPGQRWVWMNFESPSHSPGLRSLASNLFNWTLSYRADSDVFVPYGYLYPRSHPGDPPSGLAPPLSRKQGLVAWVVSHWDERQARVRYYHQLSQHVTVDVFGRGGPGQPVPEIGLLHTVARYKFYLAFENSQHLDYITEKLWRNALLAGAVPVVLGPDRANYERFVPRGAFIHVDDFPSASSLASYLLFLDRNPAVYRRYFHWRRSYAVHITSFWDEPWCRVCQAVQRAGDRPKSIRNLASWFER
measuredParameter: linking of fucose to acceptor by the induced enzyme

>>> df
                                   compound    experimentalvalue
0  OC[C@H]1O[C@@H](Oc2ccccc2)[C@H](O)[C@@H](O)[C@H]1O [PhβDgal, phenyl-β-D-galactoside]  did not link fucose
1  OC[C@H]1O[C@@H](O[C@H]2[C@H](O)[C@@H](O)C(O)O[C@@H]2CO)[C@H](O)[C@@H](O)[C@H]1O (stereo partly shown)        linked fucose
2  CC(=O)N[C@@H]1[C@@H](O[C@@H]2O[C@H](CO)[C@H](O)[C@H](O)[C@H]2O)[C@H](O)[C@@H](CO)O[C@@H]1O  did not link fucose
3  CC(=O)N[C@H]1C(O)O[C@H](CO)[C@@H](O[C@@H]2O[C@H](CO)[C@H](O)[C@H](O)[C@H]2O)[C@@H]1O (stereo partly shown)        linked fucose
